Sourced from patent US8471063B2

Listed here are compounds together with their documented IC50.
Target: FXIII (Homo sapiens)
Sequence (P00488 1-732): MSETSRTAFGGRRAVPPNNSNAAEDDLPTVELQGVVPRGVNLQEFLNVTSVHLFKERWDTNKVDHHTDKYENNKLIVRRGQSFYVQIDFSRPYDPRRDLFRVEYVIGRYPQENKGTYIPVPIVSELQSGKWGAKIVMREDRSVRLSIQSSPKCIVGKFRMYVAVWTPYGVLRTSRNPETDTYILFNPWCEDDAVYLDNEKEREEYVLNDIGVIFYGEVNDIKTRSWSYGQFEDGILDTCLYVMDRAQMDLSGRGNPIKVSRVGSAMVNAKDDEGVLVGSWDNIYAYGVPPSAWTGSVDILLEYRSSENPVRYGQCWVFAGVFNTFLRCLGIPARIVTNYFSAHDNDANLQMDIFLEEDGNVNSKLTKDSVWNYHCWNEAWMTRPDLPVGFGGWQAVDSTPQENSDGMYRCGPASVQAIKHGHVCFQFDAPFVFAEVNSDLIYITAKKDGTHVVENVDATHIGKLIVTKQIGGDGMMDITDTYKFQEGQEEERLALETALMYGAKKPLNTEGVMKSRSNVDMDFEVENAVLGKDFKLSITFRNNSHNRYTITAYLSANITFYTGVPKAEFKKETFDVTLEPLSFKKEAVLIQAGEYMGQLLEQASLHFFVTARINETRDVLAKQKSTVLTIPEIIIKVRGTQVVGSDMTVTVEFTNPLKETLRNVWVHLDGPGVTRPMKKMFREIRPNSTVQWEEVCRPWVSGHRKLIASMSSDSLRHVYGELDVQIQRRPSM
Assay: Transglutaminase inhibition, IC50 at FXIII
Assay type: biochemical
Conditions: Table 1
*1 amine or outer side, *2 acyl side, *3 side chain or, on linkers, in order; H or OH if unused. Where a SMILES comes first, the peptide text is derived from it. [ ]: non-standard residue; d: D form. The star is where a group is joined. ξ: configuration not given here. Nle(5E-ene,6-CO2Et) = CCOC(=O)/C=C/CC[C@H](N)C(=O)O; X2 = COC(=O)/C=C/CC[C@H](N[*:1])C(=O)[*:2]; Ile(3ξ) = CCC(C)[C@H](N)C(=O)O; Cbz = O=C(OCc1ccccc1)*

{"columns": ["COMPOUND", "IC50"],
 "data": [
  ["CCOC(=O)/C=C/CC[C@@H](C(=O)N[C@H](C(=O)N1CCC[C@H]1C(=O)OC)C(C)C)N1CCCC1=O [Compound 6]", "> 50000 nM"],
  ["COC(=O)/C=C/CC[C@H](NC(=O)OCc1ccccc1)C(=O)N[C@@H](CCC(N)=O)C(=O)N1CCC[C@H]1C(=O)OC [Compound 4]", "> 50000 nM"],
  ["COC(=O)/C=C/CC[C@H](NC(=O)[C@H](CC(N)=O)NC(C)=O)C(=O)N[C@@H](CCC(=O)O)C(=O)N[C@@H](C)C(=O)N[C@H](C(=O)OC)C(C)C [Compound 7] (Ac-N[X2]EAV-OMe)", "2000 nM"],
  ["CCC(C)[C@H](NC(=O)[C@@H](NC(=O)[C@H](CC(C)C)NC(=O)[C@H](CO)NC(=O)[C@H](CC/C=C/C(=O)OC)NC(=O)CNC(=O)[C@@H]1CCCN1C(=O)CNC(=O)[C@H](CC(C)C)NC(C)=O)C(C)C)C(=O)NCC(=O)OC (stereo partly shown) [Compound 8] (Ac-LGPG[X2]SLV[Ile(3ξ)]G-OMe)", "500 nM"],
  ["CCOC(=O)/C=C/CC[C@H](NC(=O)OCc1ccccc1)C(=O)N[C@@H](CCC(N)=O)C(=O)N1CCC[C@H]1C(=O)N[C@@H](CC(C)C)C(=O)OC [Compound 2] (Cbz-[Nle(5E-ene,6-CO2Et)]QPL-OMe)", "> 50000 nM"],
  ["CCOC(=O)/C=C/CC[C@H](NC(=O)OCc1ccccc1)C(=O)N[C@H](C(=O)N1CCC[C@H]1C(=O)NCCC(C)C)C(C)C [Compound 5]", "> 50000 nM"],
  ["CCOC(=O)/C=C/CC[C@H](NC(=O)OCc1ccccc1)C(=O)N[C@@H](Cc1ccccc1)C(=O)OC [Compound 3]", "2500 nM"]
]}
